Values from PubChem BioAssay (EPA / NIEHS)

Read-out: Interleukin-8 (IL8), CXCL8 (gene 3576)
Assay: BSK_3C_IL8: BioMAP Diversity Plus: 3C Assay for Interleukin-8 (IL8) Biomarker Activity (AID 2283020)
Settings: primary human endothelial cells (HUVEC); actives raise or lower the signal
Activity calls are given as the source filed them. The calls were made as follows: active = hit-call score of the fitted dose curve at least 0.9, where 1 is the maximum; inactive = score below 0.9.
endpoint: AC50

Here's what some known entries look like.
{"columns": ["compound", "observed_value"],
 "data": [
  ["CCCC(=O)O", "inactive"],
  ["Cc1ccc(C(C)(C)C)c(O)c1", "inactive"],
  ["CC1=C(C)S(=O)(=O)CCS1(=O)=O", "inactive"],
  ["O=C1c2c(O)cccc2Cc2cccc(O)c21", "inactive"],
  ["CCCCCCCCCCCCCCCCO", "inactive"],
  ["Cc1ccc(-c2cc(C(F)(F)F)nn2-c2ccc(S(N)(=O)=O)cc2)cc1", "32.7 µM (active)"]
]}

// query AC50 value for entry O=C(O)CC(O)(CC(=O)O)C(=O)O
inactive

Which AC50 reading was recorded for the compound CCCCc1nc2cccnc2n1Cc1ccc(-c2ccccc2-c2nnn[nH]2)cc1 ?
inactive

Need AC50, item COc1ccc(C(=O)Nc2nc3ccccc3c(NCc3ccccc3)c2C#N)cc1
inactive

// lookup AC50 for CC(C)c1cccc(C(C)C)c1
inactive
